tested-system: histamine H1 -receptors (Cavia porcellus, UniProt P31389)
Construct: isolated guinea pig ileum (H1); from tissue; host or cells: isolated guinea pig ileum
Sequence (P31389 whole entry): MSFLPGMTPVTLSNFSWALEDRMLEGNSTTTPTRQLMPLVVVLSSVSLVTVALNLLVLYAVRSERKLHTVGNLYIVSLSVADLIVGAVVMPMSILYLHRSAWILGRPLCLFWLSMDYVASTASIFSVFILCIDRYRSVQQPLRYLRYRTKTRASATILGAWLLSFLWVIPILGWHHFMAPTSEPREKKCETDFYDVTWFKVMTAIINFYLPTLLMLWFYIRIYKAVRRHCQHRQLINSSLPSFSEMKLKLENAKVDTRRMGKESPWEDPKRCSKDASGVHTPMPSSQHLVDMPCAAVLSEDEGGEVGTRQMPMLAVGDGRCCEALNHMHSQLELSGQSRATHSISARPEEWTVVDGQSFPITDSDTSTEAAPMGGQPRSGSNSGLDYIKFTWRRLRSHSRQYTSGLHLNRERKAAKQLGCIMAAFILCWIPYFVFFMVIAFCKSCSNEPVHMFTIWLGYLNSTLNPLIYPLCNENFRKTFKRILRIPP
measurement-description: in vitro histamine H1-antagonism on isolated guinea pig ileum
condition-description: cumulative concentration/action curves (van Rossum), read-out: H1 -antagonism ileum -log KB (converted)
Labelling field: enter TRUE if recorded Kb is less than 7 nM. Enter FALSE if it equals or exceeds that cut-off.

Field: example entries. Status: answers known.
[
  {
    "compound": "CN(C)Cc1ccc(CSCCNC(=C[N+](=O)[O-])NCCCN(C)CCN(Cc2ccc(F)cc2)c2ccccn2)o1 [Example 104]",
    "tested-system": "histamine H1 -receptors (Cavia porcellus, UniProt P31389)",
    "label-class": "FALSE"
  },
  {
    "compound": "CN(CCCCNC(=NCCSCc1csc(NC(=N)N)n1)NC#N)CCC(c1ccc(Cl)cc1)c1ccccn1 (stereo not shown) [Example 17]",
    "tested-system": "histamine H1 -receptors (Cavia porcellus, UniProt P31389)",
    "label-class": "TRUE"
  },
  {
    "compound": "CN(CCCCCCNC(=O)NCCSCc1csc(NC(=N)N)n1)CCC(c1ccc(Cl)cc1)c1ccccn1 (stereo not shown) [Example 37]",
    "tested-system": "histamine H1 -receptors (Cavia porcellus, UniProt P31389)",
    "label-class": "FALSE"
  },
  {
    "compound": "CN(CCCCCNC(=O)NCCCOc1cccc(CN2CCCCC2)c1)CCN(Cc1ccc(F)cc1)c1ccccn1 [Example 70]",
    "tested-system": "histamine H1 -receptors (Cavia porcellus, UniProt P31389)",
    "label-class": "FALSE"
  },
  {
    "compound": "COc1ccc(CN(CCN(C)CCCCCCNC(=O)NCCCOc2cccc(CN3CCCCC3)c2)c2ccccn2)cc1 [Example 66]",
    "tested-system": "histamine H1 -receptors (Cavia porcellus, UniProt P31389)",
    "label-class": "FALSE"
  }
]

Here's the next entry for you.
Regarding CN(CCCCCCCNC(=S)NCCSCc1csc(NC(=N)N)n1)CCC(c1ccc(Cl)cc1)c1ccccn1 (stereo not shown) [Example 48] , kindly confirm whether its Kb is beneath 7 nM.
FALSE

====

Kb values, listed per item
tested-system: histamine H1 -receptors (Cavia porcellus, UniProt P31389)
Construct: isolated guinea pig ileum (H1); from tissue; host or cells: isolated guinea pig ileum
measurement-description: in vitro histamine H1-antagonism on isolated guinea pig ileum
condition-description: cumulative concentration/action curves (van Rossum), read-out: H1 -antagonism ileum -log KB (converted)
The reply should contain only the number, in nM.

Solved entries:
[
  {
    "compound": "CN(CCCCCNC(=NCCSCc1csc(NC(=N)N)n1)NC#N)CCC(c1ccc(Cl)cc1)c1ccccn1 (stereo not shown) [Example 18]",
    "Kb [nM]": 3.72
  },
  {
    "compound": "CN(C)Cc1ccc(CSCCNC(=O)NCCCCN(C)CCN(Cc2ccc(F)cc2)c2ccccn2)o1 [Example 103]",
    "Kb [nM]": 24.5
  },
  {
    "compound": "COc1ccc(CN(CCN(C)CCCCNC(=O)NCCSCc2csc(NC(=N)N)n2)c2ccccn2)cc1 [Example 88]",
    "Kb [nM]": 1.82
  }
]

Quick check: Kb of CC(C1=C(CCN(C)CCCCCCNC(=C[N+](=O)[O-])NCCSCc2csc(N=C(N)N)n2)Cc2ccccc21)c1ccccn1 (stereo not shown) [Example 105] ?
36.3

Also check CN(CCCCCCCCNC(=O)NCCSCc1csc(NC(=N)N)n1)CCC(c1ccc(Cl)cc1)c1ccccn1 (stereo not shown) [Example 35]
13.8

Queued: CN(CCCCCCCNC(=O)NCCCOc1cccc(CN2CCCCC2)c1)CCN(Cc1ccc(F)cc1)c1ccccn1 [Example 72]
17.8

What would you report for CN(CCCCNC(=NCCCOc1cccc(CN2CCCCC2)c1)NC#N)CCC(c1ccccc1)c1ccccn1 (stereo not shown) [Example 9] ?
11.7

Value source: patent US5212187A
